Reference source for all entries: patent US9908919B2

Listed here: items and their measured half-life.
- assay comment: in vitro
- condition details: rat, plasma
Where a SMILES comes first, the peptide text is derived from it.
Only the number, expressed in min, is required.

Please review the entries below; each comes with its answer.
| compound | numeric value |
| --- | --- |
| CC(C)C[C@H](NC(=O)[C@H](CCCNC(=N)N)NC(=O)[C@@H]1CCCN1C(=O)[C@H](CCCNC(=N)N)NC(=O)[C@@H]1CCC(=O)N1)C(=O)N[C@@H]1CSSC[C@@H](C(=O)N2CCC[C@H]2C(=O)N[C@H](Cc2ccccc2)C(=O)N[C@H](C)C(=O)N[C@H](Cc2ccccc2)C(=O)O)NC(=O)[C@H](CCCCN)NC(=O)[C@H](Cc2c[nH]cn2)NC1=O [Example 6, pE-R-P-R-L-c*-H-K-C*-P-f-a-f-OH] (HELM PEPTIDE1{[Glp].R.P.R.L.[dC].H.K.C.P.[dF].[dA].[dF]}$PEPTIDE1,PEPTIDE1,6:R3-9:R3$$$V2.0) | 50 |
| CCCC[C@H](NC(=O)[C@@H]1CCCN1C(=O)CNC(=O)[C@H](CCCCN)NC(=O)[C@H](Cc1c[nH]cn1)NC(=O)[C@@H]1CSSC[C@H](NC(=O)[C@H](CCCNC(=N)N)NC(=O)[C@@H]2CCC(=O)N2)C(=O)N[C@@H](CCCNC(=N)N)C(=O)N[C@@H](CC(C)C)C(=O)N1)C(=O)N1CCC[C@H]1C(=O)N[C@@H](Cc1ccccc1)C(=O)O [Example 1, pE-R-C*-R-L-C*-H-K-G-P-Nle-P-F-OH] (HELM PEPTIDE1{[Glp].R.C.R.L.C.H.K.G.P.[Nle].P.F}$PEPTIDE1,PEPTIDE1,3:R3-6:R3$$$V2.0) | 4 |
| CCCC[C@@H](NC(=O)[C@@H]1CCCN1C(=O)CNC(=O)[C@H](CCCCN)NC(=O)[C@H](Cc1c[nH]cn1)NC(=O)[C@@H]1CSSC[C@H](NC(=O)[C@H](CCCNC(=N)N)NC(=O)[C@@H]2CCC(=O)N2)C(=O)N[C@@H](CCCNC(=N)N)C(=O)N[C@@H](CC(C)C)C(=O)N1)C(=O)NCCc1ccccc1 [Example 3] (HELM PEPTIDE1{[Glp].R.C.R.L.C.H.K.G.P.[CCCC[C@@H](N[*:1])C(=O)[*:2]].[c1ccc(CCN[*:1])cc1]}$PEPTIDE1,PEPTIDE1,3:R3-6:R3$$$V2.0) | 1200 |

Turning now to a further compound:
input: Provide only the value of recorded half-life for CCCC[C@H](NC(=O)[C@@H]1CCCN1C(=O)[C@@H]1CSSC[C@H](NC(=O)[C@H](CC(C)C)NC(=O)[C@H](CCCNC(=N)N)NC(=O)[C@@H]2CCCN2C(=O)[C@H](CCCNC(=N)N)NC(=O)[C@@H]2CCC(=O)N2)C(=O)N[C@@H](Cc2c[nH]cn2)C(=O)N[C@@H](CCCCN)C(=O)N1)C(=O)N1CCC[C@H]1C(=O)N[C@@H](Cc1ccccc1)C(=O)O [Example 5, pE-R-P-R-L-C*-H-K-C*-P-Nle-P-F-OH] (HELM PEPTIDE1{[Glp].R.P.R.L.C.H.K.C.P.[Nle].P.F}$PEPTIDE1,PEPTIDE1,6:R3-9:R3$$$V2.0)
output: 16
